# ASSAY_TARGET: D38N KSI (Pseudomonas putida, UniProt P07445, D40N)
# Sequence (P07445 whole entry D40N): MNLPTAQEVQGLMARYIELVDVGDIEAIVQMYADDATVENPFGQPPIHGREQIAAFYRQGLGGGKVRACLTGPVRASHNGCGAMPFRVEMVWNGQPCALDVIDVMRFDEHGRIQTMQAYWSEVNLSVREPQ
# METHOD: KD by quenching of intrinsic tryptophan fluorescence of KSI
PROPERTY: pKd
// pKd: -log10(molar conc.)

>>> endpoint_result("C[C@]12CCc3c(ccc4cc(O)ccc34)[C@@H]1CCC2=O")
7.51

GET /values?item= C[C@]12CC[C@@H]3c4ccc(O)cc4CC[C@H]3[C@@H]1CCC2=O &system= D38N KSI (Pseudomonas putida, UniProt P07445, D40N) returns pKd: 6.96

###

# ASSAY_TARGET: Y30F/D38N KSI (Pseudomonas putida, UniProt P07445, D40N/Y32F)
# Sequence (P07445 whole entry Y32F/D40N): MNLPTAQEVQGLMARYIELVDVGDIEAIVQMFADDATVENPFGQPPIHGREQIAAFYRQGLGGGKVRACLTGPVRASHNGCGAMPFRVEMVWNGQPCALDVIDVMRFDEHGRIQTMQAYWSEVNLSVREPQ
# METHOD: KD by quenching of intrinsic tryptophan fluorescence of KSI
PROPERTY: pKd
// pKd: -log10(molar conc.)

GET /values?item= C[C@]12CCc3c(ccc4cc(O)ccc34)[C@@H]1CCC2=O &system= Y30F/D38N KSI (Pseudomonas putida, UniProt P07445, D40N/Y32F) returns pKd: 7.15

These measurements were taken from paper PMC4443282.
